Provenance of the data: patent US20240116985A1

Biological target: T1, full-length beta-Catenin (Uniprot ID P35222) (Homo sapiens (Human), UniProt P35222 2-781)
T1 construct: the AlphaScreen assay uses a Histidine (Nickel Chelate) detection kit, so a His tag is likely there; also called B-Catenin; bCat
T1 sequence: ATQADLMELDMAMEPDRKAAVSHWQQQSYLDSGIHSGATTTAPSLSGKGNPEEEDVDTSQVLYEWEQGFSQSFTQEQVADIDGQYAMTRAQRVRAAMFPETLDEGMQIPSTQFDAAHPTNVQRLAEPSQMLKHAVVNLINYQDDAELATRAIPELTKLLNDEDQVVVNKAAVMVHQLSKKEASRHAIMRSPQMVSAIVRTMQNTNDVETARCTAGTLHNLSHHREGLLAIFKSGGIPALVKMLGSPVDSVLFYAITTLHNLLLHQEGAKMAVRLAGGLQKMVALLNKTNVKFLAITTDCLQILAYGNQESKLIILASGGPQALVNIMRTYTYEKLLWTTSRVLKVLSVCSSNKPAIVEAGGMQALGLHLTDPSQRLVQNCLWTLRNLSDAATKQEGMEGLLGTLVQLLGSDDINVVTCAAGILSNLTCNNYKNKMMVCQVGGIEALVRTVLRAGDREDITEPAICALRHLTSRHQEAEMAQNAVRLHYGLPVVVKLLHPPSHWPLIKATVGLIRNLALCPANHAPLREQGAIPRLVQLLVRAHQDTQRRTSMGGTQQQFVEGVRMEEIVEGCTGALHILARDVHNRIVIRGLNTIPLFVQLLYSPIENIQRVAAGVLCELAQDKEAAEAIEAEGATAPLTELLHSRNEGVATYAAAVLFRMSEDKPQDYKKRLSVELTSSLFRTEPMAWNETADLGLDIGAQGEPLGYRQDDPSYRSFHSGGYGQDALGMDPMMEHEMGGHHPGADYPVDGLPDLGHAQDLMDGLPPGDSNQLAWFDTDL
Assay: AlphaScreen competition; full-length beta-catenin with biotin-TCF4(10-53) probe as competitor
Starred links: 1 amine or outer side, 2 acyl side, 3 side chain; linkers in the order of their positions; H or OH if unused. Positions of bridges follow the written chain, without caps; N, C: chain ends. Non-standard residues stand in square brackets, D forms with d. Primed or numbered codes have the meaning given here. PyrS″ = (S)-1-((allyloxy)carbonyl)-3-aminopyrrolidine-3-carboxylic acid (stapling residue), C=CCOC(=O)N1CC[C@@](N[*:1])(C(=O)[*:2])C1; RdN = (R)-4-(((allyloxy)carbonyl)(methyl)amino)-2-amino-2-methylbutanoic acid, C=CCOC(=O)N(C)CC[C@@](C)(N[*:1])C(=O)[*:2]; PyrS = (S)-1-((allyloxy)carbonyl)-3-aminopyrrolidine-3-carboxylic acid, C=CCOC(=O)N1CC[C@@](N[*:1])(C(=O)[*:2])C1; S7 = C[C@@](CCCCCC=[*:3])(N[*:1])C(=O)[*:2]; R8 = C=CCCCCCC[C@@](C)(N)C(=O)O; Aib = CC(C)(N)C(=O)O
Listed next: entries and their corresponding EC50.
State the answer as a number, implicitly in µM.

Completed entries (count: 4):
BINDER	OBSERVED_RESULT
Ac-DI[RdN]DDAAFQ[S7]FW-NH2 (staple 3-10, stapled peptide composition) [I-151]	5.5
Ac-[Aib]DA[R8]DEAAFV[PyrS″]FW[Aib]-NH2 (staple 4-11; not fully specified; printed as Ac-Aib-Asp-Ala-R8-Asp-Glu-Ala-Ala-Phe-Val-PyrS-Phe-Trp-Aib-NH2, stapled peptide) [I-159]	5.35
XDAXDEAAFVXFXQ (not fully specified; as printed: Ac-PL3-Asp-Ala-B5-Asp-Glu-Ala-Ala-Phe-Val-S8-Phe-aMeW-Gln-NH2; N-terminal acetyl, C-terminal amide; PL3(1), B5(4), S8(11), aMeW(13); staples PL3-B5 and B5-S8 by olefin metathesis, stapled peptide) [I-136]	3.3
Ac-[Aib]DI[RdN]DEAAFQ[S7]FW-NH2 (staple 4-11, stapled peptide composition) [I-147]	0.328

Next item in the queue.
Request: Supply EC50 value. Item: Ac-FDA[R8]DDAAFS[PyrS]FWQ-NH2 (staple 4-11, stapled peptide) [I-164]
Response: 3.61
